# assay_summary: primary screen for activators of insulin secretion dependent on glucose, INS-1E cells, GLuc reporter luminescence (AID 743287);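 note: 0% = median of neutral control wells and 100% = median of IBMX positive control wells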
# condition_context: INS-1E GLuc reporter insulin secretion, 2-3 h, at 16.6 µM
Among all 370,000 compounds or so, about 2,300 (0.62%) were called active.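 Rule for the calls: active = lowest replicate activation of at least 40%, so every replicate reaches that level; inactive = the rest.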 This is one part of a sample in which actives are shown more often than they occur.
Entry note: the call must match one of 1 = active, 0 = inactive

Could you kindly confirm the outcome this assay logged for CN(CCC(=O)Nc1cc(S(=O)(=O)N(C)C)ccc1Cl)CC(=O)Nc1ccc(F)cc1 ? 0

Could you kindly confirm the outcome this assay logged for COc1ccc(CN(C)C[C@H]2Oc3ccc(NS(=O)(=O)c4c(C)noc4C)cc3CC(=O)N([C@H](C)CO)C[C@H]2C)cc1 ? 0

Could you kindly confirm the outcome this assay logged for CC(=O)Nc1cc(-c2ccc(N3CCN(C)CC3)cc2)cn2c(-c3cccc(C(=O)N(C)C)c3)cnc12 ? 1

Could you kindly confirm the outcome this assay logged for CC(C)CC#Cc1ccc([C@@H]2[C@@H](CO)N3C(=O)CN(C(=O)c4cnccn4)C[C@@H]23)cc1 ? 0

Could you kindly confirm the outcome this assay logged for CC(=O)Nc1ccc2c(c1)CC(=O)N(C)C[C@H](C)[C@H](CN(C)S(C)(=O)=O)O2 ? 0

Could you kindly confirm the outcome this assay logged for Fc1c(F)c(C(F)(F)F)c(F)c(F)c1N1CCN(c2ccc3nnc(C(F)(F)F)n3n2)CC1 ? 1

Could you kindly confirm the outcome this assay logged for COc1ccc(CCNS(=O)(=O)c2ccc(Cl)s2)cc1OC ? 1

Could you kindly confirm the outcome this assay logged for CC(=O)c1cccc(-c2cnc3c(NC=O)cc(-c4ccc(N5CCN(C)CC5)cc4)cn23)c1 ? 0

Could you kindly confirm the outcome this assay logged for COc1cccc(-c2cnc3c(NC(C)=O)cc(-c4cccc(NC(C)=O)c4)cn23)c1 ? 0
